Experiment: recombinant UMI read abundance after kanamycin selection (control-corrected) (log10(CPM+1)); higher = more efficient recombination; extreme values may be limits of the assay; sequences stand for … in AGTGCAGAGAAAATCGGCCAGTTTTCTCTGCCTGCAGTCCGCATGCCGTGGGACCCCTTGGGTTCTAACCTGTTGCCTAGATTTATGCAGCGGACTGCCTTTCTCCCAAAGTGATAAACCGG…AGGTTGGTTTCACT; site = the 11-nt donor
reported endpoint: recombinant UMI read abundance (log10)
Would you mind answering with just the numeric figure?

Consider the worked cases shown below.
# sequence text, recombinant UMI read abundance (log10)
rows = [
    ("CCAGTCACATGGACCGGTTTTCCCGGTAATCCGTATTTGGA (site CCAGTCACTTC)", 0.00572),
    ("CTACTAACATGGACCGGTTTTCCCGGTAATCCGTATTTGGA (site CTACTAACTAC)", 0.0107),
    ("CAAAGCTCATGGACCGGTTTTCCCGGTAATCCGTATTTGAA (site CAAGGCTCTTT)", 0.579),
    ("ATCCAATCATGGACCGGTTTTCCCGGTAATCCGTATTTGAG (site ATCCAACCTCT)", 0.0188),
]

Consider now this further sequence.
Quick check: recombinant UMI read abundance (log10) of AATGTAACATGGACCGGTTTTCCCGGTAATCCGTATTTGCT (site AATGTAACTTG) ?
0.00409

====

Assay: recombinant barcode read abundance after kanamycin selection (control-corrected) (log10(CPM+1)); higher = more efficient recombination; sequences stand for … in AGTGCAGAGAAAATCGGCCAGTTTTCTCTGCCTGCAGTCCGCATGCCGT…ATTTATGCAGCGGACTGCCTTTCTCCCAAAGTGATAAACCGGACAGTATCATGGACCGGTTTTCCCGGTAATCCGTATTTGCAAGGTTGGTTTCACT; site = the 11-nt target
reported endpoint: recombinant barcode read abundance (log10)

Example sequences with recorded recombinant barcode read abundance (log10):
# sequence text, value
data = [
    ("TCGCGACAATGGGTTCTAACCTGTTGCCGAG [TCGCGACCTCG_LTGcore_AA_RTGcore_CT] (site TCGCGACCTCG) (LTG core: AA, RTG core: CT)", 0.0505),
    ("CATATTAGCTGGGTTCTAACCTGTTGCCTAG [CATATTACTAG_LTGcore_GC_RTGcore_CT] (site CATATTACTAG) (LTG core: GC, RTG core: CT)", 0.73),
    ("GGGAGCCGATGGGTTCTAACCTGTTGCTGAG [GGGAGCCCTCA_LTGcore_GA_RTGcore_CT] (site GGGAGCCCTCA) (LTG core: GA, RTG core: CT)", 0.0418),
]

State the recorded recombinant barcode read abundance (log10) for this entry: ATGCTTTCTTGGGTTCTAACCTGTTGCCTAT [ATGCTTTCTAG_LTGcore_CT_RTGcore_AT] (site ATGCTTTCTAG) (LTG core: CT, RTG core: AT)
0.128

Ok, now GCGCGACTATGGGTTCTAACCTGTTGCTTTA [GCGCGACCTAA_LTGcore_TA_RTGcore_TA] (site GCGCGACCTAA) (LTG core: TA, RTG core: TA)
0.118

Subsequent entry: TGATACCCTTGGGTTCTAACCTGTTGCGTGA [TGATACCCTAC_LTGcore_CT_RTGcore_TC] (site TGATACCCTAC) (LTG core: CT, RTG core: TC)
0.864

And then GGGCGTGCTTGGGTTCTAACCTGTTGCCTGT [GGGCGTGCTAG_LTGcore_CT_RTGcore_AC] (site GGGCGTGCTAG) (LTG core: CT, RTG core: AC) , what is it?
0.536

What about this sequence? TGTATTCTTTGGGTTCTAACCTGTTGCCTAA [TGTATTCCTAG_LTGcore_TT_RTGcore_TT] (site TGTATTCCTAG) (LTG core: TT, RTG core: TT)
0.0888
